# testDetails: solvent given as SMILES
# assaySetup: in COCCOC
readoutKind: fluorescence lifetime (ns)
Reply with just the number (in ns).

{"compound": "COC(=O)C(Cc1ccc2oc(-c3ccc(Nc4ccccc4)cc3)nc2c1)NC(=O)OC(C)(C)C (centres undefined)", "fluorescence lifetime (ns)": 0.9}
{"compound": "COC(=O)C(Cc1ccc2oc(-c3ccc4c(c3)c3ccccc3n4-c3ccccc3)nc2c1)NC(=O)OC(C)(C)C (centres undefined)", "fluorescence lifetime (ns)": 1.2}
{"compound": "COC(=O)C(Cc1ccc2oc(-c3ccc(N(C)C)cc3)nc2c1)NC(=O)OC(C)(C)C (centres undefined)", "fluorescence lifetime (ns)": 0.88}

Reported fluorescence lifetime for COC(=O)C(Cc1ccc2oc(-c3ccc(N(C)c4ccccc4)cc3)nc2c1)NC(=O)OC(C)(C)C (centres undefined) was 1.18
